measured property: logP

Use the examples below as a reference point.
compound: CCC(C)CNC(=O)CC(O)C(CC(C)C)NC(=O)C(CCCn1cccc1)NC(=O)C(Cc1ccc2ccccc2c1)Cc1cccc2ccccc12 (stereo unspecified)
logP: 7.09

compound: CCC(C)CNC(=O)CC(O)C(CC(C)C)NC(=O)C(CC#CCNC(C)=O)NC(=O)C(Cc1ccc2ccccc2c1)Cc1cccc2ccccc12 (stereo unspecified)
logP: 5.32

compound: CNC(=S)NCCCCC(NC(=O)C(Cc1ccccc1)CS(=O)(=O)C(C)(C)C)C(=O)NC(CC1CCCCC1)C(O)CC(=O)NCCN1CCOCC1 (stereo unspecified)
logP: 2.64

compound: CNC(=S)NCC#CCC(NC(=O)C(Cc1ccccc1)NS(=O)(=O)N1CCOCC1)C(=O)NC(CC1CCCCC1)C(O)CC(=O)NCCN1CCOCC1 (stereo unspecified)
logP: 2.9

(A) CCC(C)CC(=O)CC(O)C(CC(C)C)NC(=O)C(CCCCNC(N)=O)NC(=O)C(Cc1ccc2ccccc2c1)Cc1cccc2ccccc12 (stereo unspecified)
(B) CNC(=S)NCCCCC(NC(=O)C(Cc1ccccc1)NS(=O)(=O)N(C)C)C(=O)NC(CC1CCCCC1)C(O)CC(=O)NCCN1CCOCC1 (stereo unspecified)
Short answer wanted: higher logP, A or B ? To answer, give the label that identifies your chosen option.
A
(A: 5.31, B: 2.41)

(P) CCC(C)CNC(=O)C(F)(F)C(O)C(CC(C)C)NC(=O)C(CCCCNC(=NC#N)SC)NC(=O)C(Cc1ccc2ccccc2c1)Cc1cccc2ccccc12 (stereo unspecified)
(Q) CNC(=S)NCCCCC(NC(=O)C(CC(=O)N1CCOCC1)Cc1cccc2ccccc12)C(=O)NC(CC1CCCCC1)C(O)CC(=O)NCCN1CCOCC1 (stereo unspecified)
Determine, for P and Q , which has the greater value of logP. # respond with the chosen item's label
P
(P: 5.51, Q: 1.68)

(P) CCC(C)CNC(=O)CC(O)C(CC(C)C)NC(=O)C(CCCCCNC(=S)NC)NC(=O)C(Cc1ccc2ccccc2c1)Cc1cccc2ccccc12 (stereo unspecified)
(Q) CC(=O)NCC#CCC(NC(=O)C(Cc1ccccc1)NS(=O)(=O)N1CCOCC1)C(=O)NC(CC1CCCCC1)C(O)CC(=O)NCCN1CCOCC1 (stereo unspecified)
Problem: Given the entries P and Q , determine which has the lower reported logP. Respond using the label that marks the chosen record.
Q
(Q: 2.12, P: 5.41)

(A) CCC(C)CNC(=O)CC(O)C(CC(C)C)NC(=O)C(CCCCCCNC(=S)NC)NC(=O)C(Cc1ccc2ccccc2c1)Cc1cccc2ccccc12 (stereo unspecified)
(B) CNC(=S)NCCCCC(NC(=O)C(Cc1ccccc1)NS(=O)(=O)N1CCOCC1)C(=O)NC(CC1CCCCC1)C(O)CC(=O)NCCN1CCOCC1 (stereo unspecified)
Returns: the label, A or B , whose recorded logP is the lower number. State the label of the item chosen.
B
(B: 2.26, A: 5.64)
